test system: MCF7 breast; assay: NCI tumour cell line growth inhibition, 48 h
attribute_measured: TGI (µM)
Numeric answer only, unit µM assumed.

Request: Can you look up the measured TGI of CC(C)(CN1CCCCC1)C(=O)CC(SCCS(=O)(=O)O)c1ccccc1 (stereo not given) for me?
Result: 33.4

Request: Can you look up the measured TGI of "Cn1c2ccccc2c2c(=O)n(CCCC(=O)NCCc3cnc[nH]3)c3c(-c4ccccc4)nnn3c21" for me?
Result: 30.3

Request: Can you look up the measured TGI of C=C1C(=O)O[C@H]2C1C[C@H](O)/C(C)=C/CC[C@@]1(C)O[C@H]21 (stereo not given in full) for me?
Result: 27.6

Request: Can you look up the measured TGI of "COc1cc(C(=O)c2cnc(-c3ccc4cc[nH]c4c3)[nH]2)cc(OC)c1OC" for me?
Result: 11.4

Request: Can you look up the measured TGI of Cc1nnc(N)nc1C/C=C/C(C)Sc1ccc(Cl)cc1 (stereo not given) for me?
Result: 33.2

Numbers sourced from PubChem BioAssay (NCI).
